- TEST SYSTEM: T1, sIL-6R (soluble IL-6 receptor; SBH Sciences) (human, UniProt P08887 20-365)
- T1 construct: also called human IL-6R
- T1 sequence: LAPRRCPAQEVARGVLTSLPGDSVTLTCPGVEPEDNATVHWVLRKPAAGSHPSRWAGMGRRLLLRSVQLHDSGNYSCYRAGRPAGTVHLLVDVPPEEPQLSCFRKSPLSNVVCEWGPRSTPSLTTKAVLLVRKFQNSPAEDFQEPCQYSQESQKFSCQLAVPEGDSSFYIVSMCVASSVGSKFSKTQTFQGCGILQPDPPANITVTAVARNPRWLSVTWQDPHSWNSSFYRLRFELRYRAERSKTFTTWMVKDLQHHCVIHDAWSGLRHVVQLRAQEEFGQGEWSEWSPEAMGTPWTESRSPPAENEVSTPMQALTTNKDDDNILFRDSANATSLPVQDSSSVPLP
- RUN DESCRIPTION: SPR (BIAcore 3000), antibody on chip, sIL-6R analyte, 25 C
READOUT TYPE: koff (s⁻¹)

BINDER	MEASUREMENT
12# (antibody, human IgG1, kappa, V domains shown, also called Sample # 12) VH: QVQLQESGPGLVRPSQTLSLTCTVSGYSITSDHAWSWVRQPPGRGLEWIGFISYSGITTYNPSLKSRVTMLRDTSKNQFSLRLSSVTAADTAVYYCARCLARATAMDYWGQGSLVTVSS VL: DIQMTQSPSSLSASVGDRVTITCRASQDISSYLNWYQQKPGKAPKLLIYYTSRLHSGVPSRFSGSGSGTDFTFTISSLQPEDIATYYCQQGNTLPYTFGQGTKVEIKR	8.32e-05
11# (antibody, human IgG1, kappa, V domains shown, also called Sample # 11) VH: QVQLQESGPGLVRPSQTLSLTCTVSGYSITSDHAWSWVRQPPGRGLEWIGFISYSGITTYNPSLKSRVTMLRDTSKNQFSLRLSSVTAADTAVYYCARSLARATAMDYWGQGSLVTVSS VL: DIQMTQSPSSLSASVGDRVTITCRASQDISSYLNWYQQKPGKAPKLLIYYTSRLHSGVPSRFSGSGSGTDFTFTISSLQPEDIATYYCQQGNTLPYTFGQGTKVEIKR	2.38e-05
9# (antibody, human IgG1, kappa, V domains shown, also called Sample # 9) VH: QVQLQESGPGLVRPSQTLSLTCTVSGYSITSDHAWSWVRQPPGRGLEWIGYISYSGIITYNASLKSRVTMLRDTSKNQFSLRLSSVTAADTAVYYCARCLARTTAMDYWGQGSLVTVSS VL: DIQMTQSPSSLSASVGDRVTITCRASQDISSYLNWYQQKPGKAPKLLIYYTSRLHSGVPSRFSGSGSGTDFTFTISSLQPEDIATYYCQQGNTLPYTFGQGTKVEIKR	5.94e-05
24# (antibody, human IgG1, kappa, V domains shown, also called Sample # 24) VH: QVQLQESGPGLVRPSQTLSLTCTVSGYSITSDHAWSWVRQPPGRGLEWIGYISYSGITTYNPSLKSRVTMLRDTSKNQFSLRLSSVTAADTAVYYCARCLARITAMDYWGQGSLVTVSS VL: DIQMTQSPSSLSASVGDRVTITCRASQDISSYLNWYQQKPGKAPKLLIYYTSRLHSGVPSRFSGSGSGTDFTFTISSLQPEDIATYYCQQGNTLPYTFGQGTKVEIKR	7.13e-05
27# (antibody, human IgG1, kappa, V domains shown, also called Sample # 27) VH: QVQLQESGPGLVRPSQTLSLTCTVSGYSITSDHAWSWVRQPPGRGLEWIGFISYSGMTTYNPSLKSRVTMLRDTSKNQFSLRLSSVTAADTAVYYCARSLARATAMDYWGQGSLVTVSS VL: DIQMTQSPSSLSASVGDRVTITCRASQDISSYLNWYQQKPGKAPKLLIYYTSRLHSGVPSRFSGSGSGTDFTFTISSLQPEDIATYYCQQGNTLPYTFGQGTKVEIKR	3.46e-05
